These measurements were taken from ChEMBL document CHEMBL1145796.

Assay: Time from injection to 95% recovery of the twitch response at the ED95 dose in male Rhesus monkey.
Assay type: functional, Cercopithecidae
Kind request: treat 10 min as inclusive, so Duration at 10 min or higher is True, anything lower is False.

q: Item COc1cc2c(cc1OC)C(c1cc(OC)c(OC)c(OC)c1)[N@+](C)(CCCOC(=O)/C(Cl)=C/C(=O)OCCC[N@+]1(C)CCc3cc(OC)c(OC)cc3[C@H]1c1cc(OC)c(OC)c(OC)c1)CC2.[Cl-].[Cl-] (stereo partly drawn) with Duration of 10 min or above?
a: False

q: Does the molecule COc1cc2c(cc1OC)[C@H](c1cc(OC)c(OC)c(OC)c1)[N@@+](C)(CCCOC(=O)C(F)(F)CC(=O)OCCC[N@+]1(C)CCc3cc(OC)c(OC)cc3[C@H]1Cc1cc(OC)c(OC)c(OC)c1)CC2.[Cl-].[Cl-] have recorded Duration that is 10 min or more?
a: False

q: # check: Duration of COc1ccc([C@@H]2c3cc(OC)c(OC)cc3CC[N@@+]2(C)CCCOC(=O)CC(F)(F)C(=O)OCCC[N@+]2(C)CCc3cc(OC)c(OC)cc3[C@H]2Cc2cc(OC)c(OC)c(OC)c2)cc1OC.[Cl-].[Cl-] is greater than or equal to 10 min
a: False

q: Textbook exercise: given the entry COc1cc2c(cc1OC)[C@H](c1cc(OC)c(OC)c(OC)c1)[N@@+](C)(CCCOC(=O)CC(F)(F)C(=O)OCCC[N@+]1(C)CCc3cc(OC)c(OC)c(OC)c3[C@H]1Cc1cc(OC)c(OC)c(OC)c1)CC2.[Cl-].[Cl-] , state whether its Duration is greater than or equal to 10 min.
a: True

q: Record COc1cc2c(cc1OC)[C@H](c1cc(OC)c(OC)c(OC)c1)[N@@+](C)(CCCOC(=O)CCCCCCCCC(=O)OCCC[N@+]1(C)CCc3cc(OC)c(OC)cc3[C@H]1Cc1cc(OC)c(OC)c(OC)c1)CC2.[Cl-].[Cl-] ; criterion: Duration no lower than 10 min. Met?
a: True

q: Please tell me: is the molecule COc1cc2c(cc1OC)[C@@H](Cc1cc(OC)c(OC)c(OC)c1)[N@+](C)(CCCOC(=O)/C(Cl)=C/C(=O)OCCC[N@+]13CCc4cc(OC)c(OC)cc4[C@H]1c1cc(OC)c(OC)cc1CC3)CC2.[Cl-].[Cl-] at or over 10 min in terms of Duration?
a: False
